- assay.details: NCI Yeast Anticancer Drug Screen. Data for the mlh1 rad18 strain (AID 175)
- protocol.conditions: S. cerevisiae mlh1 rad18 strain growth inhibition; at 5.0 µM (retest, dose inferred, filed as 0.5)
This is part of a sample that, as a whole, favours compounds with a hit. Of some 79,000 tested, about 15% had one in any assay. Calls of active or inactive are those of the source. Rule as the data show it: active = growth inhibition above about 70%; inactive = the rest.
Classes used: t for active, f for inactive

- compound: "C[CH2][Sn]([CH2]C)([O]C(=O)C(OC(C)=O)c1ccccc1)[O]C(=O)C(OC(C)=O)c1ccccc1 (stereo unspecified)"
  category.label: "f"
- compound: "COC1=CC(=O)C(C2(OC(C)C)OC(=O)C(Cl)=C2Cl)=CC1=O (stereo unspecified)"
  category.label: "f"
- compound: "CCN(CC)CCNc1ccc([N+](=O)[O-])c2nc3ccc(OC)cc3c(N)c12"
  category.label: "f"
- compound: "CCC(=O)OCCn1c2nc(=O)[nH]c(=O)c-2nc2cc(C)c(C)cc21"
  category.label: "f"
- compound: "CN1CCc2ccccc2C1Cc1ccccc1NC(=O)c1sc2ccccc2c1Cl (stereo unspecified)"
  category.label: "f"
- compound: "COCCOC(=O)CCn1cc(F)c(=O)[nH]c1=O"
  category.label: "f"
- compound: "CC(=O)OCc1ccc(O)c(C=O)c1"
  category.label: "f"
- compound: "Cc1ccc(NC(=O)/C(Cl)=C(\\Cl)C(=O)O)cc1C"
  category.label: "f"
- compound: "CCNc1nnc(CSc2nc(-c3ccccc3)c(-c3ccccc3)[nH]2)s1"
  category.label: "f"
- compound: "CC(C)/C(Cl)=N\\OC(=O)Nc1cccc(Cl)c1"
  category.label: "f"
- compound: "OC1CSCCCSCCSCCCSC1"
  category.label: "f"
- compound: "COc1cc(C2SCC(=O)N2c2ccc(-c3ccc(-n4c(-c5ccccc5)nc5ccccc5c4=O)cc3)cc2)cc(OC)c1OC (stereo unspecified)"
  category.label: "f"
- compound: "O=[N+]([O-])c1cccc([N+](=O)[O-])c1S(=O)(=O)c1ccccc1"
  category.label: "f"
- compound: "CCCCN1C(=O)N(c2ccc(OCC)cc2)C2N(CCCC)C1C(C)(C)C2(C)C (stereo unspecified)"
  category.label: "f"
- compound: "CC(=O)Cc1ccc[cH-]1.[Fe+2].c1cc[cH-]c1"
  category.label: "f"
- compound: "Clc1ccccc1C1OC1c1ccccc1Cl (stereo unspecified)"
  category.label: "f"
- compound: "CCCCCCCCCCCC(=O)N(C)C"
  category.label: "f"
- compound: "CCCCCCCC1(N=[N+]=[N-])C(=O)c2ccccc2N(C)C1=O (stereo unspecified)"
  category.label: "f"
- compound: "C[S+](C)C1(c2ccccc2)C(=O)c2ccccc2C1=O"
  category.label: "f"
- compound: "COc1ccc(C2c3cc4c(cc3OC(C)(O)C2C)OCO4)c(OC)c1 (stereo unspecified)"
  category.label: "f"
- compound: "CN(C)C[C@H]1CC[C@@H](CN(C)C)C1=O"
  category.label: "f"
- compound: "Cc1ccc(Cl)c2[nH]c(-c3ccccc3)cc(=O)c12"
  category.label: "f"
- compound: "CC(=O)Nc1ccc(SC(C)=O)cc1"
  category.label: "f"
- compound: "CC1=NN(c2cccc(Cl)c2)C(=O)C1"
  category.label: "t"
- compound: "CC(O)C(O)C(O)C(/C=N\\Nc1ccccc1)=N/Nc1ccccc1 (stereo unspecified)"
  category.label: "f"
- compound: "O=C(NCCCNCCCNC(=O)c1cc(-c2ccccc2)nc2ccccc12)c1cc(-c2ccccc2)nc2ccccc12"
  category.label: "f"
- compound: "O=C(O)CNc1ccc(Cl)c(Cl)c1"
  category.label: "f"
- compound: "CCCCc1cc(O)ccc1O"
  category.label: "f"
- compound: "CC(C)[N+]([O-])(CCCNc1c2ccccc2nc2cccc([N+](=O)[O-])c12)C(C)C"
  category.label: "t"
- compound: "CCCCCCCCC/C=C/C=C/C(=O)NCC(=O)NC1C(O)C(O)C(Nc2ncnc3nc[nH]c23)OC1C(O)CO (stereo unspecified)"
  category.label: "f"
- compound: "O=C1OC(=O)C2CCCC3CCCC1C32 (stereo unspecified)"
  category.label: "f"
- compound: "COc1ccc2ccc3ccccc3c2c1C=O"
  category.label: "f"
- compound: "O=C(NCCCCCCCN1CCCCCCC1)C(C1CCCCC1)C1CCCCC1"
  category.label: "f"
- compound: "O=S(=O)(CCCl)c1ccccc1Cl"
  category.label: "f"
- compound: "CCOC(=O)C1=C(C(=O)c2ccccc2)C(c2ccccc2[N+](=O)[O-])C(C(=O)c2ccccc2)=C(C(=O)OCC)N1"
  category.label: "f"
- compound: "O=C(N=Nc1cc(Cl)ccc1Cl)NNc1cc(Cl)ccc1Cl"
  category.label: "f"
- compound: "O=[N+]([O-])/C=C/c1ccc2ccccc2c1"
  category.label: "f"
- compound: "CC(=O)N/N=C/C(C)(C)C(C)(C)/C=N/NC(C)=O"
  category.label: "f"
- compound: "COc1ccc(/C=C2\\SC(=S)N(/C=C/c3nc4ccccc4[nH]c3=O)C2=O)cc1OC"
  category.label: "f"
- compound: "CCC/C(Cl)=N\\OC(=O)Nc1cccc(C(F)(F)F)c1"
  category.label: "f"
- compound: "O=[n+]1c2ccc(Cl)cc2n([O-])c2ccc(Cl)cc21"
  category.label: "f"
- compound: "Cc1c(C2=C(Br)C(=O)N(C)C2=O)c(=O)n(C)c(=O)n1C"
  category.label: "f"
- compound: "CCN(CC)CCN1C(=O)c2cccc3cc(OC)cc(c23)C1=O"
  category.label: "f"
- compound: "O=C(NCCCCNCCCNC(=O)c1cc(-c2ccccc2)nc2ccccc12)c1cc(-c2ccccc2)nc2ccccc12"
  category.label: "f"
- compound: "Cc1ccc2[nH]c3c(C)c4cc[n+](C)cc4c(C)c3c2c1"
  category.label: "f"
- compound: "O=C1C2CC[C@@H]3C(=O)C(Cl)(Cl)[C@@H]3CCC2C1(Cl)Cl (stereo partly specified)"
  category.label: "f"
